experiment: soluble on expression in E. coli; label from the status in PepcDB or PDB records

{"ordered_residues": "MHYCEPGWFELIRHRLAFFKDNAAPFKILFLADLHYSRFVPLSLISDAIALGIEQKPDLILLGGDYVLFDMSLNFSAFSDVLSPLAECAPTFACFGNHDRPVGTEKNHLIGETLKSAGITVLFNQATVIATPNRQFELVGTGDLWAGQCKPPPASEANLPRLVLAHNPDSKEVMRDEPWDLMLCGHTHGGQLRVPLVGEPFAPVEDKRYVAGLNAFGERHIYTTRGVGSLYGLRLNCRPEVTMLELVLEHHHHHH", "soluble on expression in E. coli": "not soluble"}
{"ordered_residues": "EGRYIYMNPAHREMFGIATEDEILGRSWRELYSGDVADHIATTALPALLSTGGWRGELIGRRRDGSDLPQEVSLTLKADGGIICISRD", "soluble on expression in E. coli": "not soluble"}

The measurements presented in this section are drawn from the DeepSol protein solubility set.
